Each record here notes measured Percent Inhibition.
- System: HPAF-II
- testDescription: Cell panel screen (CellTiter-Glo)
- Assay type: cell-based, human
- conditionDetails: HPAF-II (Pancreas), 20 micromolar, 72 hrs
assayReadout: Percent Inhibition (%)

{"compound": "CC(C)=CCc1c(O)cc(O)c2c1O[C@]13C(=C[C@@H]4C[C@H]1C(C)(C)O[C@@]3(CC=C(C)C)C4=O)C2=O", "assayReadout": "Percent Inhibition", "quantityUnit": "%", "quantitativeReadout": 100}
{"compound": "COc1ccc2c(=O)c3c(O)cc(O)cc3oc2c1OC", "assayReadout": "Percent Inhibition", "quantityUnit": "%", "quantitativeReadout": 0}
{"compound": "COc1cc(O)c2c(=O)c3ccc(O)c(O)c3oc2c1CC=C(C)C", "assayReadout": "Percent Inhibition", "quantityUnit": "%", "quantitativeReadout": 89}
{"compound": "COC(=O)C1OC(Oc2cc(O)c3c(=O)cc(-c4ccc(O)cc4)oc3c2)C(O)C(O)C1O (stereo not drawn)", "assayReadout": "Percent Inhibition", "quantityUnit": "%", "quantitativeReadout": -14}
{"compound": "COc1c(CC=C(C)C)cc2c(=O)c3c(O)cc(O)cc3oc2c1O", "assayReadout": "Percent Inhibition", "quantityUnit": "%", "quantitativeReadout": 26}
{"compound": "O=C(c1ccc(O)c(O)c1)c1c(O)cc(O)cc1O", "assayReadout": "Percent Inhibition", "quantityUnit": "%", "quantitativeReadout": 1}
{"compound": "C=C(C)C(O)Cc1c(O)cc2oc3cc(O)c(O)c(CC=C(C)C)c3c(=O)c2c1O (stereo not drawn)", "assayReadout": "Percent Inhibition", "quantityUnit": "%", "quantitativeReadout": 14}
{"compound": "COc1cc(O)c2c(=O)c3cc4c(c(O)c3oc2c1CC=C(C)C)OC(C)(C)C=C4", "assayReadout": "Percent Inhibition", "quantityUnit": "%", "quantitativeReadout": 21}
{"compound": "CC(C)=CCc1c(O)cc2oc3cc(O)c(O)c(CC=C(C)C)c3c(=O)c2c1O", "assayReadout": "Percent Inhibition", "quantityUnit": "%", "quantitativeReadout": 96}
{"compound": "CC(C)=CCC[C@@]1(C)C=Cc2c(O)c3c(c(CC=C(C)C)c2O1)O[C@]12C(=C[C@@H]4C[C@H]1C(C)(C)O[C@@]2(C/C=C(/C)C(=O)O)C4=O)C3=O", "assayReadout": "Percent Inhibition", "quantityUnit": "%", "quantitativeReadout": 98}
{"compound": "CC(C)=CCC/C(C)=C/Cc1c(O)c(CC=C(C)C)c2c(c1O)C(=O)C1=C[C@@H]3C[C@H]4C(C)(C)O[C@@](C/C=C(/C)C(=O)O)(C3=O)[C@@]14O2", "assayReadout": "Percent Inhibition", "quantityUnit": "%", "quantitativeReadout": 98}
{"compound": "O=c1c2ccc(O)c(O)c2oc2cccc(O)c12", "assayReadout": "Percent Inhibition", "quantityUnit": "%", "quantitativeReadout": -5}
{"compound": "O=C1c2c(O)cc(O)cc2OC(c2ccc(O)cc2)C1c1c(O)cc(O)c2c(=O)cc(-c3ccc(O)c(O)c3)oc12 (stereo not drawn)", "assayReadout": "Percent Inhibition", "quantityUnit": "%", "quantitativeReadout": -10}
{"compound": "COc1c(CC=C(C)C)cc2c(=O)c3c(O)cc(O)cc3oc2c1OC", "assayReadout": "Percent Inhibition", "quantityUnit": "%", "quantitativeReadout": 36}
{"compound": "O=C1c2c(O)cc(O)cc2OC(c2ccc(O)c(O)c2)C1O (stereo not drawn)", "assayReadout": "Percent Inhibition", "quantityUnit": "%", "quantitativeReadout": 6}
{"compound": "CC(C)=CCCC1(C)C=Cc2c(O)c3c(c(CC=C(C)C)c2O1)OC12C(=CC4CC1C(C)(C)OC2(CC=C(C)C(=O)O)C4=O)C3=O (mixture of isomers) [GB14]", "assayReadout": "Percent Inhibition", "quantityUnit": "%", "quantitativeReadout": 97}
{"compound": "CC(C)=CCc1c2c(c3oc4c(O)c(O)ccc4c(=O)c3c1O)C=CC(C)(C)O2", "assayReadout": "Percent Inhibition", "quantityUnit": "%", "quantitativeReadout": -10}
{"compound": "CC(C)=CCc1c2c(c(O)c3c1O[C@]14C(=C[C@@H]5C[C@H]1C(C)(C)O[C@@]4(C/C=C(\\C)CO)C5=O)C3=O)C=CC(C)(C)O2", "assayReadout": "Percent Inhibition", "quantityUnit": "%", "quantitativeReadout": 99}
{"compound": "O=C1CC(c2ccc(O)c(O)c2)Oc2cc(OC3OC(C(=O)O)C(O)C(O)C3O)cc(O)c21 (stereo not drawn)", "assayReadout": "Percent Inhibition", "quantityUnit": "%", "quantitativeReadout": -1}
{"compound": "O=c1c2cc(O)c(O)cc2oc2cc(O)cc(O)c12", "assayReadout": "Percent Inhibition", "quantityUnit": "%", "quantitativeReadout": 13}
{"compound": "CC(C)=CCc1c(O)cc2oc3cc(O)c(O)c(CCC(C)(C)O)c3c(=O)c2c1O", "assayReadout": "Percent Inhibition", "quantityUnit": "%", "quantitativeReadout": 75}
{"compound": "CC(C)=CCc1c(O)cc2oc3c(c(=O)c2c1O)C(CC=C(C)C)(CC=C(C)C)C(=O)C(O)=C3", "assayReadout": "Percent Inhibition", "quantityUnit": "%", "quantitativeReadout": 28}
{"compound": "CCOC(=O)C1OC(Oc2cc(O)c3c(c2)OC(c2ccc(O)c(O)c2)CC3=O)C(O)C(O)C1O (stereo not drawn)", "assayReadout": "Percent Inhibition", "quantityUnit": "%", "quantitativeReadout": -7}
{"compound": "COc1cc(O)c2c(=O)c3c(CC=C(C)C)cc(O)c(O)c3oc2c1CC=C(C)CCC=C(C)C", "assayReadout": "Percent Inhibition", "quantityUnit": "%", "quantitativeReadout": 82}
{"compound": "CC(C)=CCCC1(C)C=Cc2c(O)c3c(c(CC=C(C)C)c2O1)OC12C(=CC4CC1C(C)(C)OC2(CC=C(C)C(=O)O)C4=O)C3=O (mixture of isomers) [GB8]", "assayReadout": "Percent Inhibition", "quantityUnit": "%", "quantitativeReadout": 99}
{"compound": "COc1c(O)c(O)c2c(=O)c3c(CC=C(C)C)c(CC=C(C)C)c(O)c(O)c3oc2c1CC=C(C)C", "assayReadout": "Percent Inhibition", "quantityUnit": "%", "quantitativeReadout": 9}
{"compound": "CC(C)=CCc1c2c(c(O)c3c1OC14C(=CC5CC1C(C)(C)OC4(CC=C(C)C(=O)O)C5=O)C3=O)C=CC(C)(C)O2 (stereo not drawn)", "assayReadout": "Percent Inhibition", "quantityUnit": "%", "quantitativeReadout": 98}
{"compound": "COC(=O)C1OC(Oc2cc(O)c3c(c2)OC(c2ccc(O)c(O)c2)CC3=O)C(O)C(O)C1O (stereo not drawn)", "assayReadout": "Percent Inhibition", "quantityUnit": "%", "quantitativeReadout": -7}
{"compound": "O=c1c2cc(O)ccc2oc2cccc(O)c12 [gl-20]", "assayReadout": "Percent Inhibition", "quantityUnit": "%", "quantitativeReadout": 19}
{"compound": "O=c1c2cc(O)ccc2oc2cccc(O)c12 [Gof3]", "assayReadout": "Percent Inhibition", "quantityUnit": "%", "quantitativeReadout": 15}
